- System: Wolbachia pipientis
- Measurement protocol: Anti-Wolbachia Cell-Based Screen
- Assay type: functional
- Parameters: scale not given: in the data most compounds retested in dose-response had high values
- Condition parameters: 5 µM
In all, about 48,000 compounds went through this assay and about 13,000 (27%) showed an effect of 50% or more. This is one part of the list.
I'd be grateful if you could share measured Percent Effect for these entries.
Write your answer as a measured quantity: the number, then the unit.

Reference set (3 entries):
O=C1Nc2ccccc2CNC12CCN(CC1CCCC1)CC2: 118.7%
O=C(C1CNCCN1C(=O)CCc1cccnc1)N1CCOCC1 (stereo unspecified): 99.11%
CC(=O)NCc1nc(CC(C)C)nn1-c1cccc(C)c1: -6.896%

Provide the reported Percent Effect of each entry below, same order.
1. COCCN1CCC2(CC1)CC(N1CCOCC1)c1cc(C)ccc12.O=C(O)C(F)(F)F.O=C(O)C(F)(F)F (stereo unspecified)
2. Cc1ccc(CCC(=O)N2CCOCC2)cc1Cl

# output
1: -13.01%; 2: -2.511%

Provide the reported Percent Effect of each entry below, same order.
1. COc1ccc(C(=O)N2CCN(C(=O)CCCc3cn[nH]c3)CC2)cc1
2. Cc1cnc(C)c(N2C[C@H]3OC(=O)N(C4CCCC4)[C@H]3C2)n1
3. NC(=O)c1cc2c(nc1-c1ccoc1)CCC2
4. O=C(O)c1c(Cl)ncn1-c1ccccc1
5. Cc1cccc(CNC2CC3(CCN(CCO)CC3)c3ccccc32)n1.O=C(O)C(F)(F)F.O=C(O)C(F)(F)F (stereo unspecified)

# output
1: -2.583%; 2: 94.65%; 3: -15.41%; 4: 76.14%; 5: 121.3%

Provide the reported Percent Effect of each entry below, same order.
1. O=C(NC1CC1)C1CCCN(c2cc(-n3cncn3)ncn2)C1 (stereo unspecified)
2. COc1ccc(CCC(=O)N2CCNCC2C(=O)N2CCOCC2)cc1 (stereo unspecified)

# output
1. -0.5146%
2. 109%

Provide the reported Percent Effect of each entry below, same order.
1. COc1cc(N2CCCC(c3nccn3Cc3cccnc3)C2)ncn1 (stereo unspecified)
2. CCc1nc(C2CCCN(c3ncc(Br)cn3)C2)no1 (stereo unspecified)
3. Cc1n[nH]c(C2CN(C(=O)c3ccc(Cl)o3)CCO2)n1 (stereo unspecified)

# output
1. -16.56%
2. -4.032%
3. -21.06%

Provide the reported Percent Effect of each entry below, same order.
1. Cc1cc(N2CCC(Cc3cccnc3)C2)ncn1 (stereo unspecified)
2. CSCC(=O)N1CCOC(c2nc(C)n[nH]2)C1 (stereo unspecified)
3. Cc1c(CS(C)(=O)=O)cccc1NCC1CCCCC1
4. O=C(NC1CC2(CCN(CCO)CC2)c2ccccc21)c1ccsc1.O=C(O)C(F)(F)F (stereo unspecified)
5. COc1ccc(CCCC(=O)N2CCCC(n3cccn3)C2)cc1 (stereo unspecified)
6. N#Cc1ccnc(NCc2cc3n(n2)CCCN(C(=O)C2CCC2)C3)c1

# output
84.65%
81.74%
1.975%
-2.437%
8.149%
115.4%

Provide the reported Percent Effect of each entry below, same order.
1. O=C1Nc2ccccc2CNC12CCN(CC1CCNC1)CC2 (stereo unspecified)
2. Cc1ccc(N2C[C@H]3OCC[C@H]3[C@H](C(=O)NC3CCCC3)C2)nn1
3. CC(=O)c1ccc(NCc2cc3n(n2)CCCN(S(C)(=O)=O)C3)nc1
4. O=C(NCCc1c[nH]cn1)c1ccc2c(c1)C(=O)N(C1CC1)C2=O

# output
1: 113.7%; 2: 11.3%; 3: -0.5632%; 4: 25.9%

Provide the reported Percent Effect of each entry below, same order.
1. Cc1nn(CCO)c(C)c1CNC1CCOc2ccccc21.Cl (stereo unspecified)
2. COc1ccccc1CN1C(=O)O[C@@H]2CN(c3nc(C)cc(C)n3)C[C@@H]21

# output
["-2.726%", "-8.092%"]

Provide the reported Percent Effect of each entry below, same order.
1. N#Cc1ccc(NCc2cc3n(n2)CCCN(C(=O)C2CCC2)C3)nc1
2. COc1ccccc1CN1C(=O)O[C@@H]2CN(c3nc(C)cnc3C)C[C@@H]21

# output
1: 102.7%; 2: -4.864%

---

- Tested on: Wolbachia pipientis
- Measurement protocol: Anti-Wolbachia Cell-Based Screen
- Type: functional
- Parameters: scale not given: in the data most compounds retested in dose-response had high values
- Condition parameters: 5 µM
Hit rate of the full screen: of about 48,000 compounds, about 13,000 (27%) showed an effect of 50% or more. The list shows a part of the results.
I'd be grateful if you could share measured Percent Effect for these entries.
One number for each entry, in %.

CCN1CCC(NC(=O)CNC(C)Cn2cccn2)CC1 (stereo not drawn): 5.956
CCn1c(CC2CCN(C(=O)C3CNCCO3)CC2)nn(C)c1=O (stereo not drawn): -6.283
CCc1nn(C)c(Cl)c1CN1CCN(c2nc(C(N)=O)cs2)CC1: 12.42
Cc1nc(NCCN2CCCC2=O)cc(C2CN(C(C)C)CCO2)n1 (stereo not drawn): 108.1
CN(c1ncc(C(=O)NCc2ccccc2)c(N)n1)C1CCCCC1: 2.294
CC(=O)N1CCN(c2cc(C3CN(C)CCO3)nc(C)n2)CC1 (stereo not drawn): -11.29
C=C(C)CN1CCCC1c1nc(Cc2ccc(F)cc2)no1 (stereo not drawn): 3.064
O=C(CN1CCc2[nH]c3ccccc3c2C1)NCc1ccco1: -4.019

Provide the reported Percent Effect of each entry below, same order.
1. Nc1nc(N2CCCCC2)ncc1C(=O)NCc1ccc(F)c(Cl)c1
2. Cc1nc(-c2ccc(Cl)s2)sc1C(=O)N(C)CC(N)=O
3. NCCN1CCC(c2nnc(Cn3ccnc3)n2C2CC2)CC1
4. Cc1nc(NCCN2CCCC2=O)cc(C2CN(C)CCO2)n1 (stereo not drawn)

# output
1: 94.05; 2: 2.802; 3: 3.949; 4: 121.4

Provide the reported Percent Effect of each entry below, same order.
1. CC1CCCN(c2ncc(C(=O)NCc3ccc(F)c(Cl)c3)c(N)n2)C1 (stereo not drawn)
2. CNC(=O)[C@@H]1C[C@@H](NC(=O)Cc2cccs2)CN1C1CCOCC1
3. O=C(CNC(=O)N1CCc2c([nH]c3ccc(Cl)cc23)C1)N1CCOCC1
4. Cc1cc(N2CCCC(OC(=O)CCN3CCCC3=O)C2)nc(C)n1 (stereo not drawn)

# output
1: 73.04; 2: 0.5082; 3: 10.93; 4: -12.05

---

I'd be grateful if you could share measured Percent Effect for these entries.
- Tested on: Wolbachia pipientis
- Measurement protocol: Anti-Wolbachia Cell-Based Screen
- Type: functional
- Set-up: scale not given: in the data most compounds retested in dose-response had high values
- Condition parameters: 5 µM
The whole screen tested about 48,000 compounds, of which about 13,000 (27%) showed an effect of 50% or more. The list shows a part of the results.
One number for each entry, in %.

Reference set (8 entries):
Cc1cc(C2CCCN2CCCc2nc3ccccc3o2)on1 (centres undefined): 8.097
CO[C@@H]1CC[C@H]2[C@H]1OCCN2C(=O)c1ccco1: -5.889
CCC[C@]12CN3C[C@](CCC)(CN(C1)C3c1[nH]c(=O)[nH]c(=O)c1C)C2=O (some centres undefined): 113.9
CCC(C)N(Cc1ccncc1)Cc1ccc(-n2cccn2)cc1 (centres undefined): -9.551
CN(C)S(=O)(=O)N1CCC2(CC1)CC(OCC1CC1)CO2 (centres undefined): -4.528
CC1CCN(C(=O)C2CCCN(C(=O)Nc3ccccn3)C2)CC1 (centres undefined): -1.039
Cc1cnn(CC2CCCN2CCCc2nc3ccccc3o2)c1 (centres undefined): 11.07
Cc1csc2ncc(-c3ccnc(N4CCCC[C@@H]4CO)n3)c(=O)n12: 6.094

Provide the reported Percent Effect of each entry below, same order.
1. Cc1ccoc1C(=O)NC1CCN(C(=O)Nc2ccccn2)CC1
2. Cc1nc(C)n(CC2CCCN2Cc2nc(N)c3ccccc3n2)n1 (centres undefined)
3. O=C(CCn1ccc(=O)[nH]c1=O)N1CCC(OCc2cccnc2)CC1

# output
[143.8, 4.973, 17.72]

Provide the reported Percent Effect of each entry below, same order.
1. O=C(NCCc1cccs1)N1CCC[C@H]1CO
2. Cc1cc(C)n(CC2CCCN2CCCc2nc3ccccc3o2)n1 (centres undefined)
3. Cc1nc(C)n(CC2CCCN2Cc2nc3ccccc3nc2C)n1 (centres undefined)
4. Cc1nc(C)n(CC2CCCN2CCCc2nc3ccccc3o2)n1 (centres undefined)
5. COCCN(C(=O)c1cc(C)no1)c1ccc(C#N)cc1
6. Cc1nc(C)n(CC2CCCCN2Cc2nc3ccccc3o2)n1 (centres undefined)

# output
1: -11.14; 2: 125.1; 3: -1.93; 4: 115.5; 5: -3.36; 6: 96.27

Provide the reported Percent Effect of each entry below, same order.
1. Cc1csc2ncc(-c3ccnc(N4CCC[C@@H]4CO)n3)c(=O)n12
2. Cc1occc1C(=O)NC1CCN(C(=O)Nc2cccnc2)CC1
3. O=S1(=O)C[C@@H]2[C@H](C1)N(Cc1ccc3ccccc3c1)CCN2CC1CC1
4. OCC1CCCCN1c1ccc(-c2nc(-c3ccccc3F)no2)cn1 (centres undefined)
5. O=c1c(-c2ccnc(N3CCCC[C@@H]3CO)n2)cnc2sccn12
6. Cc1ccc(C(=O)NC2CCN(C(=O)Nc3ccccn3)CC2)s1
7. Cc1cc(CS(=O)(=O)NCC2CCCCC2)on1

# output
1. 56.16
2. 26.57
3. -3.143
4. 1.745
5. 125.6
6. 106.5
7. -6.001
